This listing pairs molecules with measured pEC50.
system: HCV 1b_Huh-Luc/Neo-ET cell line persistently expressing a bicistronic genotype 1b replicon in Huh 7 cells; assay: HCV replicon assay (luciferase readout); format: cell-based; settings: Hepatitis C virus, Huh-7, 72 h, read-out: Inhibition of HCV genotype 1b
pEC50: −log10 of the molar value.
measure_name: pEC50

COC(=O)N[C@H](C(=O)N1CCC[C@H]1c1ncc(-c2ccc(C#Cc3ccc(-c4cnc([C@H](C)NC(=O)[C@H](C(C)C)N(C)C)[nH]4)cc3)cc2)[nH]1)C(C)C	6.00 to 8.00
COC(=O)N[C@H](C(=O)N1CCC[C@H]1c1ncc(-c2ccc(C#Cc3ccc4nc([C@@H]5CCCN5C(=O)[C@@H](c5ccccc5)N(C)C)[nH]c4c3)cc2)[nH]1)C(C)C	> 9.00
COC(=O)N[C@H](C(=O)N1CCCC[C@H]1c1ncc(-c2ccc(C#Cc3ccc4nc([C@@H]5CCCN5C(=O)[C@@H](NC(=O)OC)C(C)C)[nH]c4c3)cc2)[nH]1)C(C)C	> 9.00

* * *

Overview of reported pEC50 across a group of compounds:
system: HCV 1b_Huh-Luc/Neo-ET cell line persistently expressing a bicistronic genotype 1b replicon in Huh 7 cells; assay: HCV replicon assay (luciferase readout); format: cell-based; conditions: Hepatitis C virus, Huh-7, 72 h, read-out: Inhibition of HCV genotype 1b
pEC50: −log10 of the molar value.
measure_name: pEC50

COC(=O)N[C@H](C(=O)N1CCC[C@H]1c1nc(-c2cnc3cc(C#Cc4cnc([C@@H]5CCCN5C(=O)[C@@H](NC(=O)OC)C(C)C)[nH]4)ccc3c2)c[nH]1)C(C)C	> 9.00
O=C([C@@H](c1ccccc1)N1CCOCC1)N1CCC[C@H]1c1ncc(-c2ccc(C#Cc3ccc(-c4cnc([C@@H]5CCCN5C(=O)[C@@H](c5ccccc5)N5CCOCC5)[nH]4)cc3)cc2)[nH]1	> 9.00
COC(=O)N[C@H](C(=O)N1CCC[C@H]1c1ncc(C#Cc2ccc(-c3ccc4nc([C@@H]5CCCN5C(=O)[C@H](NC(=O)OC)c5ccccc5)[nH]c4c3)nc2)[nH]1)C(C)C	> 9.00

* * *

system: HCV 1b_Huh-Luc/Neo-ET cell line persistently expressing a bicistronic genotype 1b replicon in Huh 7 cells; test: HCV replicon assay (luciferase readout); format: cell-based; conditions: Hepatitis C virus, Huh-7, 72 h, read-out: Inhibition of HCV genotype 1b
pEC50: −log10 of the molar value.
measure_name: pEC50

COC(=O)N[C@H](C(=O)N1CCC[C@H]1c1nc2c([nH]1)-c1ccc(C#Cc3ccc(-c4cnc([C@@H]5CCCN5C(=O)[C@@H](NC(=O)OC)C5CCOCC5)[nH]4)cc3)cc1CC2)C(C)C	> 9.00
COC(=O)N[C@H](C(=O)N1CCC[C@H]1c1nc2ccc(-c3ccc(C#Cc4cnc([C@@H]5CCCN5C(=O)[C@H](NC(=O)OC)c5ccccc5)[nH]4)cc3)cc2[nH]1)C(C)C	> 9.00
COC(=O)N[C@@H](C(=O)N1CCC[C@H]1CNC(=O)c1ccc(C#Cc2ccc(-c3cnc([C@@H]4CCCN4C(=O)[C@H](NC(=O)OC)c4ccccc4)[nH]3)cc2)cc1)c1ccccc1	> 9.00

* * *

tested on: HCV 1b_Huh-Luc/Neo-ET cell line persistently expressing a bicistronic genotype 1b replicon in Huh 7 cells; assay: HCV replicon assay (luciferase readout); assay type: cell-based; details: Hepatitis C virus, Huh-7, 72 h, read-out: Inhibition of HCV genotype 1b
measure_name: EC50

COC(=O)N[C@@H](C(=O)N1CCC[C@H]1c1ncc(-c2ccc(C#Cc3ccc(-c4cnc([C@@H]5CCCN5C(=O)[C@H]5CCCN5C)[nH]4)cc3)cc2)[nH]1)c1ccccc1	< 1 nM
CC(C)[C@H](NC(=O)N1CCC(O)CC1)C(=O)N1CCC[C@H]1c1ncc(-c2ccc(C#Cc3ccc(-c4cnc([C@@H]5CCCN5C(=O)[C@@H](NC(=O)N5CCC(O)CC5)C(C)C)[nH]4)cc3)cc2)[nH]1	> 1000 nM
CC(C)(C)OC(=O)N[C@@H](C(=O)N1CCC[C@H]1C(=O)NCc1ccc(C#Cc2ccc(-c3cnc([C@@H]4CCCN4C(=O)[C@H](NC(=O)OC(C)(C)C)c4ccccc4)[nH]3)cc2)cc1)c1ccccc1	< 1 nM
CC(C)[C@@H](NC(=O)C1CC1)C(=O)N1CCC[C@H]1C(=O)Nc1ccc(C#Cc2cnc([C@@H]3CCCN3C(=O)[C@H](NC(=O)C3CC3)C(C)C)[nH]2)cc1	1 to 9.9 nM
COC(=O)N[C@@H](C(=O)N1CCC[C@H]1c1ncc(-c2ccc(C#Cc3ccc(-c4cnc([C@@H]5CCCN5C(=O)[C@H](NC(=O)N5CCC[C@@H]5C)c5ccccc5)[nH]4)cc3)cc2)[nH]1)c1ccccc1	< 1 nM
O=C(N[C@@H](C(=O)N1CCC[C@H]1c1cc(-c2ccc(C#Cc3ccc(-c4cnc([C@@H]5CCCN5C(=O)[C@H](NC(=O)[C@@H]5CCCO5)c5ccccc5)[nH]4)cc3)cc2)n[nH]1)c1ccccc1)[C@@H]1CCCO1	< 1 nM
COC(=O)N[C@@H](CC(N)=O)C(=O)N1CCC[C@H]1c1ncc(-c2ccc(C#Cc3ccc4nc([C@@H]5CCCN5C(=O)[C@H](CC(N)=O)NC(=O)OC)[nH]c4c3)cc2)[nH]1	1 to 9.9 nM
COC(=O)N[C@@H](C(=O)N(C)[C@@H](C)c1ncc(-c2ccc(C#Cc3ccc(-c4cnc([C@@H]5CCCN5C(=O)[C@H](NC(=O)OC)c5ccccc5)[nH]4)cc3)cc2)[nH]1)c1ccccc1	< 1 nM
COC(=O)N[C@H](C(=O)N1CCC[C@H]1c1ncc(-c2ccc(C#Cc3ccc(-c4cnc([C@@H]5CCCN5C(=O)[C@@H](c5ccccc5)N5CCCC5)[nH]4)cc3)cc2)[nH]1)C(C)C	< 1 nM
COC(=O)N[C@H](C(=O)N1CCC[C@H]1c1ncc(-c2ccc(C#Cc3ccc(-c4cnc([C@@H]5CCCN5C(=O)[C@H](NC(=O)N5CC[C@@H](O)C5)c5ccccc5)[nH]4)cc3)cc2)[nH]1)C(C)C	< 1 nM
COC(=O)N[C@H](C(=O)N1CCC[C@H]1c1nc2ccc3cc(C#Cc4ccc(-c5cnc([C@@H]6CCCN6C(=O)[C@H](NC(=O)OC)c6ccccc6)[nH]5)cc4F)ccc3c2[nH]1)C(C)C	< 1 nM
COC(=O)N[C@H](C(=O)N1CCC[C@H]1c1nc2ccc3cc(C#Cc4ccc(-c5cnc([C@@H]6CCCN6C(=O)[C@@H](NC(=O)OC)C6CCOCC6)[nH]5)cc4F)ccc3c2[nH]1)C(C)C	< 1 nM
COC(=O)N[C@H](C(=O)N1CCC[C@H]1c1ncc(-c2ccc(C#Cc3ccc(-c4cnc([C@@H]5CCCN5C(=O)[C@@H](NC(=O)OC)C(C)(C)O)[nH]4)cc3)cc2)[nH]1)C(C)C	< 1 nM
O=C(NC[C@@H]1CCCN1C(=O)[C@H](NC(=O)C1CC1)c1ccccc1)c1ccc(C#Cc2ccc(-c3cnc([C@@H]4CCCN4C(=O)[C@H](NC(=O)C4CC4)c4ccccc4)[nH]3)cc2)cc1	< 1 nM
COC[C@H](NC(=O)OC)C(=O)N1CCC[C@H]1c1ncc(-c2ccc(C#Cc3ccc4nc([C@@H]5CCCN5C(=O)[C@H](COC)NC(=O)OC)[nH]c4c3)cc2)[nH]1	< 1 nM
COC(=O)N[C@H](CC(=O)N1CCC[C@H]1c1ncc(-c2ccc(C#Cc3ccc4nc([C@@H]5CCCN5C(=O)C[C@@H](NC(=O)OC)C(C)C)[nH]c4c3)cc2)[nH]1)C(C)C	10 to 999 nM
CC[C@H](NC(=O)OC)C(=O)N1CCC[C@H]1c1ncc(-c2ccc(C#Cc3ccc4nc([C@@H]5CCCN5C(=O)[C@H](CC)NC(=O)OC)[nH]c4c3)cc2)[nH]1	< 1 nM
CC(C)[C@H](NC(=O)N1CC[C@@H](O)C1)C(=O)N1CCC[C@H]1c1ncc(-c2ccc(C#Cc3ccc(-c4cnc([C@@H]5CCCN5C(=O)[C@@H](NC(=O)N5CC[C@@H](O)C5)C(C)C)[nH]4)cc3)cc2)[nH]1	10 to 999 nM

* * *

// reported EC50 per item
test system: HCV 1b_Huh-Luc/Neo-ET cell line persistently expressing a bicistronic genotype 1b replicon in Huh 7 cells; assay: HCV replicon assay (luciferase readout); format: cell-based; settings: Hepatitis C virus, Huh-7, 72 h, read-out: Inhibition of HCV genotype 1b
measure_name: EC50

O=C(N[C@@H](C(=O)N1CCC[C@H]1c1ncc(C#Cc2ccc(C#Cc3cnc([C@@H]4CCCN4C(=O)[C@H](NC(=O)N4CCOCC4)c4ccccc4)[nH]3)cc2)[nH]1)c1ccccc1)N1CCOCC1	< 1 nM
O=C(N[C@@H](C(=O)N1CCC[C@H]1c1nc(-c2ccc3cc(C#Cc4cnc([C@@H]5CCCN5C(=O)[C@H](NC(=O)N5CCOCC5)c5ccccc5)[nH]4)ccc3c2)c[nH]1)c1ccccc1)N1CCOCC1	< 1 nM
CCOC(=O)N[C@@H](C(=O)N1CCC[C@H]1c1ncc(-c2ccc(C#Cc3ccc(-c4cnc([C@@H]5CCCN5C(=O)[C@H](NC(=O)OCC)c5ccccc5)[nH]4)cc3)cc2)[nH]1)c1ccccc1	< 1 nM
